Test system: Key Grass and Sedge Weeds as well as Grass Crops
method description: Post-emergent Test II herbicidal activity (Table 6)
Type: in vivo
test parameters: post-emergence, 336 h, SORVU: grain sorghum (Sorghum vulgare), 140 g ai/ha, read-out: Visual Growth Reduction (%) 14 Days After Application, SORVU
reported endpoint: pest or weed control at 140 g/ha

Measured on Key Grass and Sedge Weeds as well as Grass Crops, Nc1c(F)c(-c2ccc(OC(F)F)cc2)nc(C(=O)O)c1Cl has a documented pest or weed control at 140 g/ha of 85 to 94%

Key Grass and Sedge Weeds as well as Grass Crops pest or weed control at 140 g/ha of Nc1c(F)c(-c2ccc(I)c(F)c2F)nc(C(=O)O)c1Cl is 85 to 94%

Key Grass and Sedge Weeds as well as Grass Crops data for COC(=O)c1nc(-c2ccc(Br)c(F)c2F)nc(N)c1OC ; its pest or weed control at 140 g/ha: 85 to 94%

Query COC(=O)c1nc(-c2ccc(F)cc2)c(F)c(N)c1Cl on Key Grass and Sedge Weeds as well as Grass Crops; pest or weed control at 140 g/ha returned: 85 to 94%

I looked up Nc1c(F)c(-c2ccc(C(F)(F)F)c(F)c2F)nc(C(=O)O)c1Cl and its pest or weed control at 140 g/ha for Key Grass and Sedge Weeds as well as Grass Crops was 85 to 94%

Bench note, Key Grass and Sedge Weeds as well as Grass Crops: entry Cc1ccc(-c2nc(C(=O)O)c(Cl)c(N)c2F)cc1F , its pest or weed control at 140 g/ha = 75 to 84%

Given the molecule COC(=O)c1nc(-c2ccc(C(F)F)c(F)c2)cc(N)c1Cl and test system Key Grass and Sedge Weeds as well as Grass Crops, the measured pest or weed control at 140 g/ha is 75 to 84%

Log: Key Grass and Sedge Weeds as well as Grass Crops, molecule COC(=O)c1nc(-c2ccc(Br)c(F)c2F)c(F)c(N)c1Cl , pest or weed control at 140 g/ha = 95 to 100%

Readout pest or weed control at 140 g/ha for COC(=O)c1nc(-c2ccc(I)cc2)cc(N)c1Cl , test system Key Grass and Sedge Weeds as well as Grass Crops, was 85 to 94%

# COC(=O)c1nc(-c2ccc(OC(F)F)c(F)c2F)c(F)c(N)c1Cl with Key Grass and Sedge Weeds as well as Grass Crops: pest or weed control at 140 g/ha is 0 to 29%

# value of pest or weed control at 140 g/ha, Key Grass and Sedge Weeds as well as Grass Crops, item COC(=O)c1nc(-c2ccc(I)c(F)c2)c(F)c(N)c1Cl = 95 to 100%

I looked up COC(=O)c1nc(-c2ccc(C)c(F)c2F)c(F)c(N)c1Cl and its pest or weed control at 140 g/ha for Key Grass and Sedge Weeds as well as Grass Crops was 30 to 44%

Hey, Key Grass and Sedge Weeds as well as Grass Crops data for COC(=O)c1nc(-c2ccc(Br)cc2F)nc(N)c1OC : pest or weed control at 140 g/ha came out at 60 to 74%

Summary line: COC(=O)c1nc(-c2ccc(I)c(F)c2F)c(F)c(N)c1Cl , Key Grass and Sedge Weeds as well as Grass Crops, reported pest or weed control at 140 g/ha = 95 to 100%

Summary line: Nc1cc(-c2ccc(Br)cc2)nc(C(=O)O)c1Cl , Key Grass and Sedge Weeds as well as Grass Crops, reported pest or weed control at 140 g/ha = 95 to 100%

Key Grass and Sedge Weeds as well as Grass Crops pest or weed control at 140 g/ha of Nc1c(F)c(-c2ccc(Br)c(F)c2F)nc(C(=O)O)c1Cl is 95 to 100%

The recorded pest or weed control at 140 g/ha with Key Grass and Sedge Weeds as well as Grass Crops for COc1c(N)nc(-c2ccc(C(F)(F)F)c(F)c2F)nc1C(=O)O was 45 to 59%

Log: Key Grass and Sedge Weeds as well as Grass Crops, molecule COc1c(N)nc(-c2ccc(I)cc2F)nc1C(=O)O , pest or weed control at 140 g/ha = 95 to 100%

Test item COC(=O)c1nc(-c2ccc(C(F)(F)F)c(F)c2F)nc(N)c1OC ; Key Grass and Sedge Weeds as well as Grass Crops; reported pest or weed control at 140 g/ha was 45 to 59%
